Documented TGI across a set of molecules
Tested on: SN12C renal
PROCEDURE_SUMMARY: NCI tumour cell line growth inhibition, 48 h

MOLECULE	TGI
NC(=O)NNCc1c(-c2ccccc2)no[n+]1[O-]	> 100 µM
CCO/C(O)=C(/C(=N)N1CCCC1)C(=O)Nc1cccc(Cl)c1	> 100 µM
C/C(=N\NC(=S)NC(CCC(=O)O)C(=O)O)c1cnccn1 (stereo unspecified)	> 100 µM
CCOC(=O)c1sc2c(c1O)c(=O)n(-c1ccccc1)c(=S)n2-c1ccccc1	> 100 µM
C[C@@H](NC(=O)c1ncnc(N)c1Cl)c1ncc(C(=O)Nc2cc(C(F)(F)F)c(Cl)cn2)s1	> 93.7 µM
Cc1nc(-c2cnc(NC(C)C)n(C)c2=O)ccc1Oc1ccnc(-c2cnn(C)c2)c1	> 100 µM

Numbers sourced from PubChem BioAssay (NCI).
